Sourced from PubChem BioAssay (NCATS)

# Tested on: CP215
# experimental.protocol: qHTS profiling for inhibitors of Plasmodium falciparum proliferation (AID 504749); also: nearly all actives have a fitted effect of over 60% in size
# settings: P. falciparum in erythrocytes, SYBR Green DNA, 72 h; series mostly up to 12.8 µM
Results filed as inconclusive are left out. Active and inactive are the calls of the source. Calls follow the shape of the dose curve; as a rule, active = well fitted inhibition curve with a large enough effect; inconclusive = small, poorly fitted or top-dose-only effect; inactive = flat fitted curve, though single readings scatter.
Would you mind answering with one of these outcomes? yes (1) for active, no (0) for inactive

Answered cases to consult:
[
  {
    "structure": "COc1cc(N)c(Cl)cc1C(=O)N[C@H]1CCN(CCCOc2ccc(F)cc2)C[C@H]1OC",
    "class": "no (0)"
  },
  {
    "structure": "CCC[C@@H]1O[C@@H]2C[C@@H]3[C@H]4CCC5=CC(=O)C=C[C@@]5(C)[C@H]4[C@H](O)C[C@@]3(C)[C@@]2(C(=O)CO)O1",
    "class": "yes (1)"
  },
  {
    "structure": "CCC(C)(C)C(=O)O[C@@H]1C[C@H](C)C=C2C=C[C@H](C)[C@@H](CC[C@H]3C[C@@H](O)CC(=O)O3)[C@H]21",
    "class": "no (0)"
  }
]

Test call, this compound: CCc1c(C)[nH]c2c1C(=O)[C@H](CN1CCOCC1)CC2 no (0)

What did the test return for C[C@H](C(=O)O)c1cccc(Oc2ccccc2)c1 ? no (0)

---

# Test system: CP256
# experimental.protocol: qHTS profiling for inhibitors of Plasmodium falciparum proliferation (AID 504749); also: nearly all actives have a fitted effect of over 60% in size
# settings: P. falciparum in erythrocytes, SYBR Green DNA, 72 h; series mostly up to 12.8 µM
Results filed as inconclusive are left out. Activity calls are given as the source filed them. The call rests on the fitted dose curve; in most records, active means well fitted inhibition curve with a large enough effect; inconclusive means small, poorly fitted or top-dose-only effect; inactive means flat fitted curve, though single readings scatter.
Pick one and only one: active, inactive

Reference set (5 entries):
[
  {
    "compound": "CC(=O)N[C@H](CC(C)C)C(=O)O",
    "class": "inactive"
  },
  {
    "compound": "CC(C)(C)NC[C@H](O)COc1cccc2c1CCC(=O)N2",
    "class": "inactive"
  },
  {
    "compound": "CC(=O)OCC(=O)[C@@]12OC3(CCCC3)OC1CC1C3CCC4=CC(=O)C=C[C@@]4(C)[C@]3(F)C(O)C[C@]12C (stereo partly drawn)",
    "class": "inactive"
  },
  {
    "compound": "O[C@@](CCN1CCCC1)(c1ccccc1)C1CCCCC1",
    "class": "inactive"
  },
  {
    "compound": "c1ccc2c(c1)CCC[C@@H]2C1=NCCN1",
    "class": "inactive"
  }
]

Hi, do you know how CCC(=O)O[C@@]1(C(=O)SCF)[C@@H](C)C[C@H]2[C@@H]3C[C@@H](F)C4=CC(=O)C=C[C@@]4(C)[C@]3(F)[C@@H](O)C[C@]21C came out in this test? inactive

Dear all, I need the recorded test outcome for CCC1OC(=O)CC(O)C(C)[C@@H](O[C@@H]2OC(C)[C@H](O[C@@H]3C[C@@](C)(O)C(O)C(C)O3)C(N(C)C)C2O)[C@H](CC=O)CC(C)C(=O)/C=C/C(C)=C/[C@@H]1COC1OC(C)C(O)C(OC)[C@@H]1OC (stereo partly drawn) , thank you. active

For this compound, state the assay outcome: C[C@H](N[C@@H](C)COc1ccccc1)[C@H](O)c1ccc(O)cc1 inactive

---

Each item that follows carries a reported max response.
# experimental.protocol: qHTS Assay for Lipid Storage Modulators (AID 1519)
# settings: Drosophila S3 cells, BODIPY lipid droplet/cell ratio, laser cytometry; measured here: cell count channel max response; cells loaded with oleic acid
Results filed as inconclusive are left out.
// note: answer is a bare numeric in %

Below: 5 compounds and their reported max response.
[
  {
    "compound": "C[C@@]12CCC3c4ccc(O)cc4CCC3C1CCC2O (stereo partly specified)",
    "endpoint.value": -0.621
  },
  {
    "compound": "CC(C)CC(N)C(=O)NC(C)C(=O)O (stereo unspecified)",
    "endpoint.value": 18.5
  },
  {
    "compound": "CC1(C)CC2C1CCC1(C)OC1CCC2(C)O (stereo unspecified)",
    "endpoint.value": -0.415
  },
  {
    "compound": "CN(C)C1C(=O)C(C(N)=O)=C(O)[C@@]2(O)C(=O)C3=C(O)c4c(O)ccc(Cl)c4C(O)[C@H]3C[C@@H]12 (stereo partly specified)",
    "endpoint.value": 25.6
  },
  {
    "compound": "CSc1ncnc2c1ncn2C1OC(CO)C(O)C1O (stereo unspecified)",
    "endpoint.value": -18.3
  }
]

Please report max response for the following compound: CO/N=C(\C(=O)N[C@@H]1C(=O)N2C(C(=O)O)=C(COC(N)=O)CS[C@@H]12)c1ccco1 -5.14

Give the reported value of max response for this record: O=c1c2ccccc2oc2cc(O)c(C3COCC(CO)C(O)C(O)C3O)c(O)c12 (stereo unspecified) 22.8

Tell me max response reported for COC(=O)CC1C(C)(C)C(O)C2CC3=C4CC(O)OC(c5ccoc5)[C@]4(C)CCC3[C@@]1(C)C2=O (stereo partly specified) 8.85

Tell me max response reported for CCCCCCCCCCCCC(C(=O)O)C(C)C(=O)O (stereo unspecified) 6.54

In one line, give reported max response of the entry COc1ccc(CNc2ncncc2-c2ccccc2CN(C)C)c(OC)c1 . 9.69

Provide max response value for the following compound: C[N+](C)(C)CCOP(=O)([O-])OP(=O)(O)OCC1OC(n2ccc(N)nc2=O)C(O)C1O (stereo unspecified) 9.36

Give the reported value of max response for this record: O=c1[nH]c(Cl)nc2c1ncn2C1OC(CO)C(O)C1O (stereo unspecified) 2.53

Retrieve max response measured for CCC(C)C(=O)OC1CC(C)C=C2C=CC(C)C(CCC3CC(O)CC(=O)O3)C21 (stereo unspecified) and print it. 0.727

Indicate the recorded max response value for this compound: O=c1[nH]c(=O)c2nc(Br)n(C3OC(CO)C(O)C3O)c2[nH]1 (stereo unspecified) 5.7

Tell me its max response given Cc1cc(=O)c2c(O)cc(O)c(C)c2o1 as the entry. 5.24

Return value of max response for input COC(=O)C1=C(C)NC(C)=C(C(=O)OC(C)C)[C@H]1c1cccc2nonc12 , no commentary. -21.2

Give max response for COc1cc(O)c(C(=O)O)c(O)c1 1.93

Indicate its recorded max response; the compound in question is CC1(C)SC2C(NC(=O)C(N)c3ccccc3)C(=O)N2C1C(=O)O (stereo unspecified) 15.7

Identify measured max response associated with O=C(O)CCCCC1SCC2NC(=O)NC21 (stereo unspecified) 11.8

Name the recorded max response of the item CC(=O)OC1C[C@@]2(C)C(c3ccoc3)OC(=O)C3O[C@@]32[C@]2(C)C(OC(C)=O)CC3C(C)(C)C(OC(C)=O)CC(OC(C)=O)[C@@]3(C)C12 (stereo partly specified) in your answer. -1.68

Return value of max response for input C=CC1=C(C(=O)O)N2C(=O)C(NC(=O)/C(=N\O)c3csc(N)n3)C2SC1 (stereo unspecified) , no commentary. 11.5
